Test system: HCT-116
method-notes: cells
reported-conditions: Homo sapiens, HCT-116, 72 h
Description: Antiproliferative activity against human HCT-116 cells assessed as reduction in cell viability measured after 72 hrs
parameter-measured: pIC50
pIC50 field: float, defined as -log10 of concentration (mol/L).

Would you please look over these solved cases?
- given-smiles: "COc1cccc(-c2cc(NCc3cc(OC)c(OC)c(OC)c3)nc(N)n2)c1"
  target-of-assay: "HCT-116"
  pIC50: 6.80
- given-smiles: "COc1cccc(-c2cc(NCc3ccc4c(c3)OCO4)ncn2)c1"
  target-of-assay: "HCT-116"
  pIC50: 4.80
- given-smiles: "COc1cccc(-c2cc(NCc3ccc(OC)c(OC)c3)nc(N)n2)c1"
  target-of-assay: "HCT-116"
  pIC50: 7.52
- given-smiles: "COc1cccc(-c2cc(NCc3ccc4c(c3)OCO4)nc(N)n2)c1"
  target-of-assay: "HCT-116"
  pIC50: 6.28
- given-smiles: "Nc1nc(NCc2ccc3c(c2)OCO3)cc(-c2ccoc2)n1"
  target-of-assay: "HCT-116"
  pIC50: 6.00
- given-smiles: "C=CCN(Cc1ccc2c(c1)OCO2)c1cc(-c2cccc(OC)c2)nc(N)n1"
  target-of-assay: "HCT-116"
  pIC50: 7.01
- given-smiles: "Nc1nc(NCc2ccc3c(c2)OCO3)cc(-c2ccc3ccccc3c2)n1"
  target-of-assay: "HCT-116"
  pIC50: 5.78
- given-smiles: "Nc1nc(NCc2ccc3c(c2)OCO3)cc(-c2ccccc2)n1"
  target-of-assay: "HCT-116"
  pIC50: 6.04

Req: Entry under review: `COc1cccc(-c2cc(N(C)Cc3ccc4c(c3)OCO4)nc(N)n2)c1` . Reported pIC50?
Resp: 7.46
